Assay: NCI Yeast Anticancer Drug Screen. Data for the bub3 strain (AID 167)
Details: S. cerevisiae bub3 mutant strain, at 5.0 µM (retest, dose inferred, filed as 0.5), active compounds read high
Compounds without any hit were thinned out: in the full panel of roughly 79,000, 15% have a hit.
measureName: growth inhibition (%)
Please give a number only; it is taken to be in %.

Problem: growth inhibition for CCN(CC)Cc1c(-c2ccccc2)oc(-c2ccccc2)c1CN(CC)CC ?
Result: 1

---

Assay: NCI Yeast Anticancer Drug Screen. Data for the mec2-1 strain (AID 157)
Conditions: S. cerevisiae mec2-1 strain, at 5.0 µM (retest, dose inferred, filed as 0.5)
Description: Growth inhibition of yeast strains with defined genetic alterations is measured as a screen for potential anti-cancer activity. Selected strains with alterations in DNA damage repair or cell cycle control were exposed to compounds and growth inhibition was measured relative to vehicle treated controls. The strain used in this assay is mec2-1
This is part of a sample that, as a whole, favours compounds with a hit. Of some 79,000 tested, about 15% had one in any assay. Active and inactive are the calls of the source. Rule as the data show it: active = growth inhibition above about 70%; inactive = the rest.
A correct response names exactly one class from active, inactive

Take a look at these entries with their results.
- molecule: "Brc1ccc(C2SCc3nc4ccccc4n32)cc1 (stereo not given)"
  answerLabel: "inactive"
- molecule: "CN(C)c1c([N+](=O)[O-])cc(N2C(=O)C=CC2=O)cc1[N+](=O)[O-]"
  answerLabel: "active"
- molecule: "CC1=NN(c2nc(N)nc(C(C)Sc3cc(Cl)c(C)cc3S(N)(=O)=O)n2)C(C)(C)C1 (stereo not given)"
  answerLabel: "inactive"
- molecule: "CCOC(=O)C1SC(=Nc2ccc(Cl)cc2)N=C1C (stereo not given)"
  answerLabel: "inactive"

Problem: Could you please tell me the result logged for Cc1cc(N/N=C/c2cccc3ccccc23)c2cc3c(cc2n1)OCO3 in this assay?
Result: inactive

Problem: Check O=[N+]([O-])c1ccc(NSc2ccccc2)cc1 too.
Result: inactive

---

Form field: growth inhibition (one value per entry).
Test: NCI Yeast Anticancer Drug Screen. Data for the mlh1 rad18 strain (AID 175)
Details: S. cerevisiae mlh1 rad18 strain growth inhibition; at 50.0 µM (retest, dose inferred, filed as 5.0); active compounds read high
Compounds without any hit were thinned out: in the full panel of roughly 79,000, 15% have a hit.
Give the number; % is assumed, so skip it.

Recorded results for 3 compounds are shown here.
- compound: "COc1cccc(CC2N(S(=O)(=O)c3ccc(C)cc3)CCC23C(=O)Nc2ccccc23)c1OC (centres undefined)"
  growth inhibition (%): 96
- compound: "CC(CO)[C@H]1OC(=O)C=C2[C@@]13O[C@@H]3[C@H]1OC(=O)[C@@]3(C)[C@H]4O[C@H]4C[C@@]2(C)[C@@H]13 (some centres undefined)"
  growth inhibition (%): 97
- compound: "CCCCOc1c(OCCCC)c(=O)c1=O"
  growth inhibition (%): 55

Problem: Which value of growth inhibition has been reported for COC(=O)C12CCC(=O)C(C)=C1CCC(OC)(OC)C2 (centres undefined) in the records?
Result: 11

Problem: Then CCOC(=O)CCc1ccc(OC)c(OC)c1 ?
Result: -1

Problem: Subsequent entry: O=C1NC2(C=Cc3c(ccc4ccccc34)O2)Oc2ccccc21 (centres undefined)
Result: 3

Problem: Another compound: CCN(CC)CCCC(Nc1c2ccc(Cl)cc2nc2ccc(OC)cc12)c1cccs1 (centres undefined)
Result: 72

Problem: Now try CC(C)(C)CC(C)(C)c1ccc(O)c(O)c1 .
Result: 99

Problem: Moving on to C[N+](C)([O-])CCOc1cc2c(c3ccccc13)-c1ccccc1C2=O
Result: 13

Problem: Same thing, different compound: O=C(c1cccc(Cl)c1)c1ccc2ccccc2c1C(=O)O
Result: 5

Problem: Check CC(=O)O/C=C\COC(C)=O too.
Result: 6

Problem: What about C[N+](C)(C)CCC(=O)c1ccco1 ?
Result: 99

Problem: Try O=C(N/N=C/c1ccccc1)c1ccc([N+](=O)[O-])cc1 next.
Result: 18

Problem: Try the compound S=C(N/N=C/c1ccccn1)N1CCCCCC1
Result: 99

Problem: Please answer likewise for CC(=O)N=C1N(/C=C2\C(=O)Oc3ccccc3C2=O)C(=O)/C(=C/c2ccco2)N1C
Result: 61

Problem: Entry to check: C/C=C(\C)C(=O)O[C@@H]1CC(C)(C)CC2C3=CCC4[C@]56CC[C@](O)(OC5)C(C)(C)C6CC[C@@]4(C)C3(C)CC[C@]21C(=O)O (some centres undefined)
Result: 94

Problem: Okay, and Cc1cc2nc(CS)[nH]c2cc1C ?
Result: 61

Problem: Could you do the same for CCCCCCCCCN(CCCCCCCCC)CC(O)c1cc2c(c3ccccc13)CCCC2 (centres undefined) , please?
Result: 95

Problem: Request: C[CH2][Ge]([CH2]C)([CH2]C)[O]C(=O)C([O][Ge]([CH2]C)([CH2]C)[CH2]C)c1ccccc1 (centres undefined)
Result: 23

Problem: How about NC(=S)N/N=C\c1nccc2c(C(F)(F)C(F)(F)C(F)(F)F)cccc12 ?
Result: 69

Problem: Entry Oc1ccc(/C=N/NC(=S)Nc2ccccc2)nc1 please
Result: 78

Problem: Now try O=C1OC2(Cc3ccccc31)c1ccccc1-c1ccccc12 .
Result: -9

Problem: Param item: COc1ccc(CN(C)c2c(C)ccc3ccccc23)cc1
Result: 78

Problem: Consider next the compound c1cc(C2=NCCN2)ccc1Nc1ccc(-c2cc3ccc(C4=NCCN4)cc3[nH]2)cc1 in the same way.
Result: 99

Problem: And what about the compound CCOC(=N)CCCSSc1ccc(N=[N+]=[N-])cc1 ?
Result: 99
